# study.target: Hu CDH3 Dom3 mu (aa 328-440), human/mouse chimeric CDH3 on CHO cells (chimeric hu/mu)
# Sequence (chain, as listed by the source mutant limits assumed): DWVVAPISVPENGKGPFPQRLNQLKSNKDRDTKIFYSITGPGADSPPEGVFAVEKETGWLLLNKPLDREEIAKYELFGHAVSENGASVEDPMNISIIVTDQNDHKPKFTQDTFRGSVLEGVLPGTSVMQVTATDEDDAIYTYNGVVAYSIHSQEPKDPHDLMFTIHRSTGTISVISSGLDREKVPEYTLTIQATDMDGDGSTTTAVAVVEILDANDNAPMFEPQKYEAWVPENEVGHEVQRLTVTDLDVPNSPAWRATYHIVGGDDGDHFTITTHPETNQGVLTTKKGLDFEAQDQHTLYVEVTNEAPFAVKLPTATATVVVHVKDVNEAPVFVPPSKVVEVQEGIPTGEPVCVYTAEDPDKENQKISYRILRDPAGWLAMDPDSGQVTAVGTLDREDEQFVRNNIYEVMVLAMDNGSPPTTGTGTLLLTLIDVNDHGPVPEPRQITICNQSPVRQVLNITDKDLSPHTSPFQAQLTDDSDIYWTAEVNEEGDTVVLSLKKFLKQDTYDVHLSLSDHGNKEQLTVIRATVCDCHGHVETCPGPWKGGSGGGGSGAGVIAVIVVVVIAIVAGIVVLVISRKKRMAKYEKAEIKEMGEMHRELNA
# assay.summary: flow cytometry, transfected CHO cells; crude undiluted periplasmic scFv extract; anti-FLAG M2 + anti-mouse IgG Fcγ-PE; control PBS/2% FCS
endpoint: binding result

binder | endpoint | value.observed
CDH3-10 scFv (scFv) scFv: EVQLVEESGGGLVKPGGSLKLSCAASGFTFSSYAMSWVRQTPDKRLEWVATISSGGHYTYYPDSVKGRFTISRDNAKNTLYLQMSSLKSEDTAMYYCASYYYGIPFGYWGQGTTVTVSSGGGGSGGGGSGGGGSELVMTQSPSSLSASLGEGVSLTCRASQDIGINLIWLRQEPDGTIKRLIYDTSSLDSGVPKRFSGSRSGSDYSLTISSLESEDFVHYYCLQYGSSPLTFGAGTKLEIK | binding result | binds
